test-system: T1, Human ANGPTL4(26-406)-FLAG-His6-Avi (human, UniProt Q9BY76 24-406, biotin on the C-terminal Avi tag in the biotinylated preparations (immobilised form in SET, ELISA and Octet))
T1 sequence: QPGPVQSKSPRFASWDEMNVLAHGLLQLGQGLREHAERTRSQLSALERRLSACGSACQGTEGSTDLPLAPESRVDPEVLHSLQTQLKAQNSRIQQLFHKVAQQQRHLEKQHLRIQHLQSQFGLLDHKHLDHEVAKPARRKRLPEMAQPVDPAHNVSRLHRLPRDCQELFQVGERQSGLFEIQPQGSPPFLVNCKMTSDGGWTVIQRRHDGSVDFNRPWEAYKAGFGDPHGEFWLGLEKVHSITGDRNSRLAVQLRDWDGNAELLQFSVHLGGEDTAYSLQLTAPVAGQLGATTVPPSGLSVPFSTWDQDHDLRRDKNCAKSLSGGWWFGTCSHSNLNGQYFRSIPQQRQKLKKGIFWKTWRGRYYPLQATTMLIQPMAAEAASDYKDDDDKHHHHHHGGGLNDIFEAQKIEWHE
method-notes: cell-based or functional assay
# Reversal of human ANGPTL4 inhibition of human LPL EC50 per record follows
The answer is to be given in nM; state only the numeric part.

MOR022769 (antibody, human IgG1, kappa, V domains shown, human IgG1) VH: EVQLLESGGGLVQPGGSLRLSCAASGFTFSSYYLHWVRQAPGKGLEWVSYISGDASSTYYADSVKGRFTISRDNSKNTLYLQMNSLRAEDTAVYYCARERSYAHDHWGQGTLVTVSS VL: DIQMTQSPSSLSASVGDRVTITCRASQDIYIDLNWYQQKPGKAPKLLIYAASKLQSGVPSRFSGSGSGTDFTLTISSLQPEDFATYYCQQGYFLPQTFGQGTKVEIKR
2
MOR022766 (antibody, human IgG1, lambda, V domains shown, human IgG1) VH: EVQLVQSGAEVKKPGESLKISCKGSGYSFSTYWISWVRQMPGKGLEWMGIIDPSNTDTRYSPSFQGQVTISADKSISTAYLQWSSLKASDTAMYYCARVYGYVYMDVWGQGTLVTVSS VL: SYELTQPLSVSVALGQTARITCSGDNLGKKYAYWYQQKPGQAPVLVIYDKTKRPSGIPERFSGSNSGNTATLTISRAQAGDEADYYCASYDWYSSSYVFGGGTKLTVLG
3

Okay, now this binder:
// Reversal of human ANGPTL4 inhibition of human LPL EC50 lookup, key: MOR022765 (antibody, human IgG1, lambda, V domains shown, human IgG1) VH: EVQLVQSGAEVKKPGESLKISCKGSGYSFSTYWISWVRQMPGKGLEWMGIIDPSSSDTRYSPSFQGQVTISADKSISTAYLQWSSLKASDTAMYYCARVYGYVYMDVWGQGTLVTVSS VL: SYELTQPLSVSVALGQTARITCSGDNLGKKYAYWYQQKPGQAPVLVIYDKTKRPSGIPERFSGSNSGNTATLTISRAQAGDEADYYCASYDWYSSSYVFGGGTKLTVLG
3
